Task for the reader: assign each of the following sequences its reported phosphorylation enrichment.
molecular target: MERTK (UniProt Q12866); experiment: phosphorylation enrichment, bacterial display (enrichment ratio); higher = better substrate or ligand; peptides without Tyr show the background;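 further: 11-residue human phosphosite peptides and single-mutation variants displayed on the E. coli surface, counted by deep sequencing, each peptide's frequency after selection divided by its frequency in the unselected input library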;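 further: frequency after pTyr selection over input frequency; kinase dosed for 20-30% of maximal phosphorylation in three min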
Sequence (Q12866 whole entry, looked up): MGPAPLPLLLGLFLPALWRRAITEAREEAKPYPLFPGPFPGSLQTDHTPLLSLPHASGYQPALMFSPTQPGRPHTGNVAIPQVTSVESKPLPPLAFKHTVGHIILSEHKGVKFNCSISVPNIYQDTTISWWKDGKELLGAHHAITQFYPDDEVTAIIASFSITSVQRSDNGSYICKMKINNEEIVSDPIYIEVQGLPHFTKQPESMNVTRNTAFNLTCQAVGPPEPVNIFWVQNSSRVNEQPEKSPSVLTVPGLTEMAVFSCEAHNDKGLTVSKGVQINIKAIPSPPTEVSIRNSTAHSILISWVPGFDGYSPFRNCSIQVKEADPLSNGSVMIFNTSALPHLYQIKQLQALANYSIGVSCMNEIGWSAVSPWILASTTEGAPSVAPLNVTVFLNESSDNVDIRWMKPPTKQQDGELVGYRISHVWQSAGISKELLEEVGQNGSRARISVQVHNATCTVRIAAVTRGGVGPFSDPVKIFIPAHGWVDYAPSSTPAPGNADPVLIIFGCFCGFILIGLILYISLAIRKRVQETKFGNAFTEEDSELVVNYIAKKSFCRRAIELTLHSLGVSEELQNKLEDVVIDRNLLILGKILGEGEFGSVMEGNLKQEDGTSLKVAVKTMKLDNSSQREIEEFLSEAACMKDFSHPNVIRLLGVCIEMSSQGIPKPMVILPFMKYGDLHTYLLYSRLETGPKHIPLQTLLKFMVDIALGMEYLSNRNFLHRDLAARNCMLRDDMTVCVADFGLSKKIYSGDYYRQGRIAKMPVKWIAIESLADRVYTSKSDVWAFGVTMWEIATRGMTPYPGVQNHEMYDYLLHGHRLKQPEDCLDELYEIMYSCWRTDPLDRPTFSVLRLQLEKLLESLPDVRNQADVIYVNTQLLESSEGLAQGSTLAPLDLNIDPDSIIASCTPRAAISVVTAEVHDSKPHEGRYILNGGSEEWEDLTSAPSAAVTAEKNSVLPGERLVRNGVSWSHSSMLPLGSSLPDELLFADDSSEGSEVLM

For the sequence SVTFTYSPALN [TP53_Y126_C124Y_YF] , what phosphorylation enrichment is on record?
0.336

For the sequence RFLERYIFNRE [HLA-DPB1_Y57_YF] , what phosphorylation enrichment is on record?
0.409

For the sequence QVMDGYPIPIG [MMP14_Y353_M355I] , what phosphorylation enrichment is on record?
0.482

For the sequence TQIGQYGNGLK [MORC2_Y100] , what phosphorylation enrichment is on record?
0.316

For the sequence SLTRLCVGENA [NLRP3_Y861_Y861C] , what phosphorylation enrichment is on record?
0.466

For the sequence ALWFIYLHTRS [ENG_Y614_S615L_YF] , what phosphorylation enrichment is on record?
0.422

For the sequence IEEGTYGVVYR [CDK11B_Y449] , what phosphorylation enrichment is on record?
4

For the sequence TNRSVYFKPSL [NUP153_Y382] , what phosphorylation enrichment is on record?
0.455

For the sequence KRAIGYFSATS [FAM120A_Y327_YF] , what phosphorylation enrichment is on record?
0.362

For the sequence SRVTQYERDFE [SNX1_Y463] , what phosphorylation enrichment is on record?
0.379

For the sequence DMLTLYVNTAA [SMCHD1_Y403_Q400L] , what phosphorylation enrichment is on record?
0.444

For the sequence DYNPNYCFAGK [ALK_Y1096] , what phosphorylation enrichment is on record?
0.906

For the sequence FPPTHYIRRVP [SLC4A11_Y820_YF] , what phosphorylation enrichment is on record?
0.522

For the sequence FLGRNYLETLM [DUS3L_Y610_D609N_YF] , what phosphorylation enrichment is on record?
0.322
